# credit: patent US4698352A

System: E. coli TK-111
run description: Antibacterial activity (MIC), agar dilution
Type: cell-based
condition: Escherichia coli, TK111, 20 h, E. coli TK-111; 10^6 cells per ml; 37° C., 20 hours; read-out: MIC
Decision: MIC beneath 0.2 mg/L gives y; MIC meeting or exceeding 0.2 mg/L gives n.

// known answers, use as guide
molecule | category label
CN(C)c1ccc(-c2cc(=O)c(C(=O)O)cn2-c2ccc(F)cc2)cc1 | n
Cc1ccc(-c2ccc(-c3cc(=O)c(C(=O)O)cn3-c3ccc(O)cc3)cc2)s1 | y
Cc1cc(F)ccc1-n1cc(C(=O)O)c(=O)cc1C1CC=CCC1 (stereo not drawn) | n
O=C(O)c1cn(-c2ccc(O)cc2)c(-c2ccc3ccccc3c2)cc1=O | y
O=C(O)c1cn(-c2ccc(F)cc2)c(-c2ccc(N=Cc3ccc([N+](=O)[O-])o3)cc2)cc1=O | n
CNc1ccc(-c2cc(=O)c(C(=O)O)cn2-c2ccc(O)cc2)cc1C | y
CN(C)c1ccc(-c2cc(=O)c(C(=O)O)cn2-c2cccc(O)c2)cc1 | y
CC(=O)Oc1ccc(-n2cc(C(=O)O)c(=O)cc2-c2ccc(N(C)C)cc2)c(C)c1 | y
O=C(O)c1cn(-c2ccc(O)cc2F)c(-c2ccc(N3CCOCC3)cc2)cc1=O | n
O=C(O)c1cn(-c2ccc(O)cc2F)c(-c2cc3ccccc3s2)cc1=O | y

Say whether its MIC is strictly beneath 0.2 mg/L. Entry: `Cc1cc(O)ccc1-n1cc(C(=O)O)c(=O)cc1-c1ccccc1` y

Say whether its MIC is strictly beneath 0.2 mg/L. Entry: `Cc1cc(O)ccc1-n1cc(C(=O)O)c(=O)cc1-c1ccc(N(C)C)cc1` y

Say whether its MIC is strictly beneath 0.2 mg/L. Entry: `CN(C)c1ccc(-c2cc(=O)c(C(=O)O)cn2-c2ccccc2F)cc1` n

Say whether its MIC is strictly beneath 0.2 mg/L. Entry: `CC(=O)Oc1ccc(-n2cc(C(=O)O)c(=O)cc2-c2ccc(-c3cccs3)cc2)cc1` y

* * *

Test system: E. coli NIHJ JC-2
run description: Antibacterial activity (MIC), agar dilution
Assay type: cell-based
condition: Escherichia coli, NIHJJC2, 20 h, E. coli NIHJ JC-2; 10^6 cells per ml; 37° C., 20 hours; read-out: MIC
measure: MIC (µg/mL)
One number for each entry, in µg/mL.

Reference set (3 entries):
compound | numeric result
O=C(O)c1cn(-c2ccc(O)cc2)c(-c2ccc(N3CCCC3)cc2)cc1=O | 0.39
CC(=O)Oc1ccc(-n2cc(C(=O)OCCN(C)C)c(=O)cc2-c2ccc3c(ccn3C)c2)c(F)c1 | 0.1
Cc1ccc(-c2cc(=O)c(C(=O)O)cn2-c2ccc(O)cc2)s1 | 0.2

For each entry beneath this line, provide reported MIC.
1. CC(=O)Oc1ccc(-n2cc(C(=O)O)c(=O)cc2-c2ccc(N(C)C)cc2)c(C)c1
2. Cc1nc2ccc(-c3cc(=O)c(C(=O)O)cn3-c3ccc(O)cc3)cc2s1
3. COc1ccc(-c2cc(=O)c(C(=O)O)cn2-c2ccc(F)cc2)cc1
4. Cc1cc(O)ccc1-n1cc(C(=O)O)c(=O)cc1C1=CCCC1
5. CN(C)c1ccc(-c2cc(=O)c(C(=O)O)cn2-c2ccc(F)cc2O)cc1
6. COc1ccc(-c2ccc(-c3cc(=O)c(C(=O)O)cn3-c3ccc(O)cc3)s2)cc1
7. O=C(O)c1cn(-c2ccc(O)cc2)c(-c2ccc3cccnc3c2)cc1=O
8. Cn1ccc2cc(-c3cc(=O)c(C(=O)O)cn3-c3ccc(F)cc3)ccc21

1. 0.2
2. 0.39
3. 1.56
4. 0.78
5. 0.78
6. 0.39
7. 0.78
8. 0.39

* * *

Tested on: Ps. aeruginosa GN3379*
run description: Antibacterial activity (MIC), agar dilution
Assay type: cell-based
condition: Pseudomonas aeruginosa, 20 h; Ps. aeruginosa GN3379, penicillinase-producing; 10^6 cells per ml; read-out: MIC
Excerpt: The amount of bacteria inoculated was 10^4 cells per plate (10^6 cells per ml). * Penicillinase-producing bacteria
measure: MIC (µg/mL)
Numbers only, in µg/mL.

Reference set (5 entries):
compound | numeric result
COc1ccc(-c2cc(=O)c(C(=O)O)cn2-c2ccc(F)cc2)cc1 | 25
Nc1ccc(-c2cc(=O)c(C(=O)O)cn2-c2ccc(F)cc2)cc1 | 25
Cc1nc(-c2ccc(-c3cc(=O)c(C(=O)O)cn3-c3ccc(F)cc3)cc2)cs1 | 25
Cc1cc(O)ccc1-n1cc(C(=O)O)c(=O)cc1C1CC=CCC1 (stereo not drawn) | 6.25
Cc1cc(O)ccc1-n1cc(C(=O)O)c(=O)cc1C1=CCCC1 | 25

For each entry beneath this line, provide reported MIC.
1. COCOC(=O)c1cn(-c2ccc(O)cc2)c(-c2ccc(N(C)C)cc2)cc1=O
2. O=C(O)c1cn(-c2ccc(O)cc2)c(-c2ccc(-c3cccs3)cc2)cc1=O
3. CN(C)c1ccc(-c2cc(=O)c(C(=O)O)cn2-c2ccc(O)cc2)cc1 [drawing 206]
4. CNc1ccc(-c2cc(=O)c(C(=O)O)cn2-c2ccc(F)cc2)cc1C
5. CN1CCc2cc(-c3cc(=O)c(C(=O)O)cn3-c3ccc(O)cc3)ccc21
6. O=C(O)c1cn(-c2ccc(O)cc2)c(-c2ccc3ccsc3c2)cc1=O
7. CN(C)c1ccc(-c2cc(=O)c(C(=O)O)cn2-c2ccc(F)cc2F)cc1
8. CC(=O)Oc1ccc(-n2cc(C(=O)OCC(O)CO)c(=O)cc2-c2ccc(N(C)C)cc2)cc1 (stereo not drawn)

1. 6.25
2. 3.13
3. 3.13
4. 25
5. 6.25
6. 3.13
7. 25
8. 50

Consider the compound `O=C(O)c1cn(-c2ccc(F)cc2)c(-c2ccc(Cl)s2)cc1=O` and give its measured MIC. 25

* * *

What MIC was measured for each of the following?
System: E. coli TK-111
run description: Antibacterial activity (MIC), agar dilution
Assay type: cell-based
condition: Escherichia coli, TK111, 20 h, E. coli TK-111; 10^6 cells per ml; 37° C., 20 hours; read-out: MIC
One number for each entry, in µg/mL.

Reference set (5 entries):
compound | study target | measure | numeric result
Cc1cc(O)ccc1-n1cc(C(=O)O)c(=O)cc1C1CCCC1 | E. coli TK-111 | MIC | 0.39
Nc1ccc(-c2cc(=O)c(C(=O)O)cn2-c2ccc(F)cc2)cc1 | E. coli TK-111 | MIC | 0.39
Cc1cc(O)ccc1-n1cc(C(=O)O)c(=O)cc1C1CC2C=CC1C2 (centres unmarked) | E. coli TK-111 | MIC | 1.56
Cc1nc(-c2ccc(-c3cc(=O)c(C(=O)O)cn3-c3ccc(F)cc3)cc2)co1 | E. coli TK-111 | MIC | 0.39
Cc1cc(O)ccc1-n1cc(C(=O)O)c(=O)cc1CCc1ccccc1 | E. coli TK-111 | MIC | 0.39

For each entry beneath this line, provide reported MIC.
1. COc1ccc(-c2cc(=O)c(C(=O)O)cn2-c2ccc(O)cc2C)cc1
2. CNc1ccc(-c2cc(=O)c(C(=O)O)cn2-c2ccc(F)cc2)cc1C

0.05
0.39

* * *

Test system: Pro. vulgaris GN3027
run description: Antibacterial activity (MIC), agar dilution
Type: cell-based
condition: Proteus vulgaris, GN3027, 20 h, Pro. vulgaris GN3027; 10^6 cells per ml; 37° C., 20 hours; read-out: MIC
What MIC was measured for each of the following?
Numbers only, in µg/mL.

Reference set (3 entries):
compound | numeric result
O=C(O)c1cn(-c2ccc(F)cc2)c(C=Cc2cccnc2)cc1=O [drawing 205] | 0.39
Cc1cc(O)ccc1-n1cc(C(=O)O)c(=O)cc1C1=CCCC1 | 0.1
O=C(O)c1cn(-c2ccc(O)cc2)c(-c2ccc(-c3ccccn3)s2)cc1=O | 0.1

For each entry beneath this line, provide reported MIC.
1. O=C(O)c1cn(-c2ccc(F)cc2)c(-c2cc3ccccc3s2)cc1=O
2. O=C(O)c1cn(-c2ccc(O)cc2)c(-c2ccc3ccccc3c2)cc1=O
3. CC(=O)Oc1ccc(-n2cc(C(=O)OCCN(C)C)c(=O)cc2-c2ccc3c(ccn3C)c2)c(F)c1
4. Cc1cc(F)ccc1-n1cc(C(=O)O)c(=O)cc1C1CC=CCC1 (centres unmarked)

1. 0.39
2. 0.1
3. 0.1
4. 0.39

* * *

What MIC was measured for each of the following?
System: Kl. pneumoniae Y-4*
run description: Antibacterial activity (MIC), agar dilution
Assay type: cell-based
condition: Klebsiella pneumoniae, 20 h, Kl. pneumoniae Y-4, penicillinase-producing; 10^6 cells per ml; read-out: MIC
Give bare numbers, in µg/mL.

Reference set (6 entries):
compound | numeric result
CN(C)c1ccc(-c2cc(=O)c(C(=O)O)cn2-c2ccc(O)c(F)c2)cc1 | 3.13
Cc1cc(O)ccc1-n1cc(C(=O)O)c(=O)cc1C1=CCCC1 | 6.25
CN(C)c1ccc(-c2cc(=O)c(C(=O)O)cn2-c2ccc(O)cc2F)cc1 | 0.78
Cc1cc(O)ccc1-n1cc(C(=O)O)c(=O)cc1C1CCCCC1 [drawing 12] | 12.5
O=C(O)c1cn(-c2ccc(O)cc2)c(-c2ccc(-c3ccc(O)cc3)s2)cc1=O | 6.25
CN1CCOc2cc(-c3cc(=O)c(C(=O)O)cn3-c3ccc(O)cc3)ccc21 | 3.13

For each entry beneath this line, provide reported MIC.
1. CC(=O)Oc1ccc(-n2cc(C(=O)O)c(=O)cc2-c2ccc(-c3cccs3)cc2)cc1
2. Cc1cc(F)ccc1-n1cc(C(=O)O)c(=O)cc1C1CC=CCC1 (stereo not drawn)
3. CNc1ccc(-c2cc(=O)c(C(=O)O)cn2-c2ccc(F)cc2)cc1C
4. O=C(O)c1cn(-c2ccc(O)cc2F)c(C2CC=CCC2)cc1=O (stereo not drawn)
5. O=C(O)c1cn(-c2ccc(F)cc2)c(-c2ccc(N=Cc3ccc([N+](=O)[O-])o3)cc2)cc1=O
6. CC(=O)Oc1ccc(-n2cc(C(=O)O)c(=O)cc2-c2ccc(N(C)C)cc2)cc1
7. O=C(O)c1cn(-c2ccc(O)cc2)c(-c2ccc3ccccc3c2)cc1=O
8. CC(=O)Oc1ccc(-n2cc(C(=O)OCCN(C)C)c(=O)cc2-c2ccc3c(ccn3C)c2)c(F)c1

[1.56, 25, 12.5, 6.25, 25, 3.13, 1.56, 3.13]

State its MIC on Kl. pneumoniae Y-4*: `CN(C)c1ccc(-c2cc(=O)c(C(=O)O)cn2-c2ccc(F)cc2)cc1` 12.5
